Listing of recorded pIC50 by entry.
target: Human KRAS G12D His-tagged protein (Homo sapiens (Human), UniProt P01116, G12D); experiment: KRAS G12D binding assay (TR-FRET); conditions: GDP 20 nM, GTP-Red
Sequence (P01116-2 other isoform, or with tags, fused parts or gaps G12D): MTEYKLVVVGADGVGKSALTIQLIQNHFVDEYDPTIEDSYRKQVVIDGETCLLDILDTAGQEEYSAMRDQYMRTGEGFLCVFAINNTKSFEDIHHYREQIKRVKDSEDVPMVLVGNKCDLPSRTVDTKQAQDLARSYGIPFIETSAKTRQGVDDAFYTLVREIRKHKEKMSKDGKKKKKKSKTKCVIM
Please express pIC50 as -log10 of the molar concentration.

Previously resolved entries follow.
compound: Nc1nc2c(-c3c(Cl)c4c5c(nc(OC[C@@]67CCCN6C[C@H](F)C7)nc5c3F)N3C[C@H]5CC[C@H](N5)[C@H]3CO4)ccc(F)c2s1 (single isomer, unassigned)
pIC50: 8.33

compound: N#Cc1c(N)sc2c(F)ccc(-c3c(Cl)c4c5c(nc(OC[C@@]67CCCN6C[C@H](F)C7)nc5c3F)N3C[C@H]5CC[C@H](N5)[C@H]3CO4)c12 [Compound I-11]
pIC50: 7.95

Tell me pIC50 reported for Nc1n[nH]c2sc3cccc(-c4c(Cl)c5c6c(nc(OC[C@@]78CCCN7C[C@H](F)C8)nc6c4F)N4C[C@H]6CC[C@H](N6)[C@H]4CO5)c3c12 (single isomer, unassigned) 7.96

Tell me pIC50 reported for `Nc1cc2cc(-c3c(Cl)c4c5c(nc(OC[C@@]67CCCN6C[C@H](F)C7)nc5c3F)N3C[C@H]5CC[C@H](N5)[C@H]3CO4)ccc2s1` 7.62

Tell me pIC50 reported for `N#Cc1c(N)nn2cccc(-c3c(Cl)c4c5c(nc(OC[C@@]67CCCN6C[C@H](F)C7)nc5c3F)N3C[C@H]5CC[C@H](N5)[C@H]3CO4)c12` 7.49

Tell me pIC50 reported for C#Cc1cccc2cc(O)cc(-c3nc4c5c(nc(OC[C@@]67CCCN6C[C@H](F)C7)nc5c3F)N3CC5CCC(N5)C3CO4)c12 (stereo partly drawn) 7.96

Tell me pIC50 reported for `N#Cc1c(N)sc2ccc(F)c(-c3c(Cl)c4c5c(nc(OC[C@@]67CCCN6C[C@H](F)C7)nc5c3F)N3C[C@H]5CC[C@H](N5)[C@H]3CO4)c12` 8.07

Tell me pIC50 reported for [2H]C([2H])(Oc1nc2c3c(c(Cl)c(-c4cccc5sc(N)c(C#N)c45)c(F)c3n1)OC[C@@H]1[C@@H]3CC[C@H](CN21)N3)[C@@]12CCCN1C[C@H](F)C2 (single isomer, unassigned) [Compound I-24-2] 8.76

Tell me pIC50 reported for Nc1nc2c(-c3c(Cl)c4c5c(nc(OC[C@@]67CCCN6C[C@H](F)C7)nc5c3F)N3C[C@H]5CC[C@H](N5)[C@H]3CO4)cccc2s1 (single isomer, unassigned) [Compound I-12-2] 8.52

----------
Listing of recorded pIC50 by entry.
tested on: phosphorylation level of ERK1/2 in ASPC-1 human pancreatic cancer cells; assay: pERK cell level assay (PHOSPHO-ERK1/2 HTRF kit); format: cell-based; conditions: Homo sapiens, ASPC1, pERK1/2 (THR202/TYR204), Aspc-1 cells, 4 hours incubation
Please express pIC50 as -log10 of the molar concentration.

compound: N#Cc1c(N)sc2c(F)ccc(-c3c(Cl)c4c5c(nc(OC[C@@]67CCCN6C[C@H](F)C7)nc5c3F)N3C[C@H]5CC[C@H](N5)[C@H]3CO4)c12 [Compound I-11]
measured.target: phosphorylation level of ERK1/2 in ASPC-1 human pancreatic cancer cells
measured.result: 8.99
--
compound: N#Cc1c(N)sc2cccc(-c3c(Cl)c4c5c(nc(OC[C@@]67CCCN6C[C@H](F)C7)nc5c3F)N3C[C@H]5CC[C@H](N5)[C@H]3CO4)c12 (single isomer, unassigned) [Compound I-7-2]
measured.target: phosphorylation level of ERK1/2 in ASPC-1 human pancreatic cancer cells
measured.result: 9.26

Turning now to a further compound:
State measured pIC50 of the compound Nc1nc2c(-c3c(Cl)c4c5c(nc(OC[C@@]67CCCN6C[C@H](F)C7)nc5c3F)N3C[C@H]5CC[C@H](N5)[C@H]3CO4)cccc2s1 (single isomer, unassigned) [Compound I-12-2] with phosphorylation level of ERK1/2 in ASPC-1 human pancreatic cancer cells. 8.08

----------
target: Human KRAS G12D His-tagged protein (Homo sapiens (Human), UniProt P01116, G12D); experiment: KRAS G12D binding assay (TR-FRET); details: GDP 20 nM, GTP-Red
reported.property: pIC50
Please express pIC50 as -log10 of the molar concentration.

compound: N#Cc1c(N)sc2cccc(-c3c(Cl)c4c5c(nc(OC[C@@]67CCCN6C[C@H](F)C7)nc5c3F)N3C[C@H]5CC[C@H](N5)[C@H]3CO4)c12 (single isomer, unassigned) [Compound I-7-1]
pIC50: 6.73

Turning now to a further compound:
State measured pIC50 of the compound [2H]C([2H])(Oc1nc2c3c(c(Cl)c(-c4cccc5sc(N)c(C#N)c45)c(F)c3n1)OC[C@@H]1[C@@H]3CC[C@H](CN21)N3)[C@@]12CCCN1C[C@H](F)C2 (single isomer, unassigned) [Compound I-24-1] with Human KRAS G12D His-tagged protein (Homo sapiens (Human), UniProt P01116, G12D). 6.87

----------
Listing of recorded IC50 by entry.
Target: Human KRAS G12D His-tagged protein (Homo sapiens (Human), UniProt P01116, G12D)
Assay: KRAS G12D binding assay (TR-FRET)
Details: GDP 20 nM, GTP-Red
Method: The binding ability of the compound to KRAS G12D protein was detected by TR-FRET method, and the inhibitory activity of the compound on KRAS G12D protein was evaluated. […] The fluorescence intensity at 620 nm and 665 nm was detected by a microplate reader, and the inhibitory activity of the compound on KRAS G12D protein was obtained by fitting a four-parameter equation.

Previously resolved entries follow.
compound: C#Cc1cccc2cc(O)cc(-c3nc4c5c(nc(OC[C@@]67CCCN6C[C@H](F)C7)nc5c3F)N3C[C@H]5CC[C@H](N5)[C@H]3CO4)c12
measured.target: Human KRAS G12D His-tagged protein (Homo sapiens (Human), UniProt P01116, G12D)
IC50: 0.00272 µM
//
compound: N#Cc1c(N)sc2cccc(-c3c(Cl)c4c5c(nc(OC[C@@]67CCCN6C[C@H](F)C7)nc5c3F)N3C[C@H]5CC[C@H](N5)[C@H]3CO4)c12 (single isomer, unassigned) [Compound I-7-2]
measured.target: Human KRAS G12D His-tagged protein (Homo sapiens (Human), UniProt P01116, G12D)
IC50: 0.00244 µM
//
compound: N#Cc1c(N)sc2cccc(-c3c(Cl)c4c5c(ncnc5c3F)N3C[C@H]5CC[C@H](N5)[C@H]3CO4)c12 (single isomer, unassigned)
measured.target: Human KRAS G12D His-tagged protein (Homo sapiens (Human), UniProt P01116, G12D)
IC50: 0.0758 µM
//
compound: [2H]C1([2H])CC[C@@]2(C([2H])([2H])Oc3nc4c5c(c(Cl)c(-c6cccc7sc(N)c(C#N)c67)c(F)c5n3)OC[C@@H]3[C@@H]5CC[C@H](CN43)N5)C[C@@H](F)CN12 (single isomer, unassigned) [Compound I-27-2]
measured.target: Human KRAS G12D His-tagged protein (Homo sapiens (Human), UniProt P01116, G12D)
IC50: 0.0014 µM
//
compound: N#Cc1c(N)sc2c1C(c1c(Cl)c3c4c(nc(OC[C@@]56CCCN5C[C@H](F)C6)nc4c1F)N1C[C@H]4CC[C@H](N4)[C@H]1CO3)=CCC2
measured.target: Human KRAS G12D His-tagged protein (Homo sapiens (Human), UniProt P01116, G12D)
IC50: 0.012 µM
//
compound: CC(Oc1nc2c3c(c(Cl)c(-c4cccc5sc(N)c(C#N)c45)c(F)c3n1)OC[C@@H]1[C@@H]3CC[C@H](CN21)N3)[C@@]12CCCN1C[C@H](F)C2 (some centres unmarked)
measured.target: Human KRAS G12D His-tagged protein (Homo sapiens (Human), UniProt P01116, G12D)
IC50: 0.00777 µM
//
compound: N#Cc1c(N)sc2cccc(-c3c(Cl)c4c5c(ncnc5c3F)N3CC5CCC(N5)C3CO4)c12 (centres unmarked)
measured.target: Human KRAS G12D His-tagged protein (Homo sapiens (Human), UniProt P01116, G12D)
IC50: 0.0536 µM
//
compound: [2H]C1([2H])CC[C@@]2(COc3nc4c5c(c(Cl)c(-c6cccc7sc(N)c(C#N)c67)c(F)c5n3)OC[C@@H]3[C@@H]5CC[C@H](CN43)N5)C[C@@H](F)CN12 (single isomer, unassigned)
measured.target: Human KRAS G12D His-tagged protein (Homo sapiens (Human), UniProt P01116, G12D)
IC50: 0.00189 µM
//
compound: CC(Oc1nc2c3c(c(Cl)c(-c4cccc5sc(N)c(C#N)c45)c(F)c3n1)OCC1C3CCC(CN21)N3)C12CCCN1CC(F)C2 (centres unmarked)
measured.target: Human KRAS G12D His-tagged protein (Homo sapiens (Human), UniProt P01116, G12D)
IC50: 0.646 µM
//
compound: Cc1ccc2sc(N)c(C#N)c2c1-c1c(Cl)c2c3c(nc(OC[C@@]45CCCN4C[C@H](F)C5)nc3c1F)N1C[C@H]3CC[C@H](N3)[C@H]1CO2
measured.target: Human KRAS G12D His-tagged protein (Homo sapiens (Human), UniProt P01116, G12D)
IC50: 0.00976 µM

Tell me IC50 reported for N#Cc1c(N)sc2c(F)ccc(-c3c(Cl)c4c5c(nc(OC[C@@]67CCCN6C[C@H](F)C7)nc5c3F)N3C[C@H]5CC[C@H](N5)[C@H]3CO4)c12 (single isomer, unassigned) [Compound I-11-2] 0.0059 µM

Tell me IC50 reported for `C#Cc1cccc2cc(O)cc(-c3nc4c5c(nc(OC[C@@]67CCCN6C[C@H](F)C7)nc5c3F)N3C[C@@H]5CC[C@@H](N5)[C@@H]3CO4)c12` 0.0254 µM

Tell me IC50 reported for N#Cc1c(N)sc2cccc(-c3c(Cl)c4c5c(nc(OC[C@@]67CCCN6C[C@H](F)C7)nc5c3F)N3C[C@H]5CC[C@H](N5)[C@H]3CO4)c12 [Compound I-7] 0.00659 µM

Tell me IC50 reported for N#Cc1c(N)sc2c(F)ccc(-c3c(Cl)c4c5c(ncnc5c3F)N3C[C@H]5CC[C@H](N5)[C@H]3CO4)c12 (single isomer, unassigned) 0.0604 µM

Tell me IC50 reported for [2H]C1([2H])CC[C@@]2(C([2H])([2H])Oc3nc4c5c(c(Cl)c(-c6cccc7sc(N)c(C#N)c67)c(F)c5n3)OC[C@@H]3[C@@H]5CC[C@H](CN43)N5)C[C@@H](F)CN12 (single isomer, unassigned) [Compound I-27-1] 0.212 µM

Tell me IC50 reported for CC(Oc1nc2c3c(c(Cl)c(-c4cccc5sc(N)c(C#N)c45)c(F)c3n1)OC[C@H]1[C@@H]3CC[C@H](CN21)N3)[C@@]12CCCN1C[C@@H](F)C2 (some centres unmarked) 0.0069 µM
